measuredTarget: biotinylated KRAS G12C protein (GMP-PNP loaded) and GST-tagged Ras binding domain of c-RAF (Homo sapiens, UniProt P01116, C118S/C51S/C80L/G12C)
Sequence (P01116 with tags, fused parts or gaps isoform P01116-2 G12C/C51S/C80L/C118S): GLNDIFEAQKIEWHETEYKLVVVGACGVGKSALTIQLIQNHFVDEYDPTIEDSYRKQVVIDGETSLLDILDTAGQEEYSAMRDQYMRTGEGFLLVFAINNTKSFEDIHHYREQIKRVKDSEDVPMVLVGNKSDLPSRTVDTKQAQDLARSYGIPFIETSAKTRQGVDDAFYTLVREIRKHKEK
methodNotes: RAS:RAF-RBD binding assay (TR-FRET)
conditionSet: 30-minute incubation of compound with KRAS G12C before RAF-RBD; Table 4; read-out: IC50
Could you please report measured IC50 for the items listed next?
The reply should be a number in nM, with the unit left off.

Please give the measured IC50 for this molecule: `COCc1nc2c3c(c(OC)cc2n1C)-c1cccn2c(C(=O)c4cc(F)c(NC(=O)/C=C/CNC(C)(C)C)c(F)c4)cc(c12)CCN3C`
8.15

Now the same for Cc1nc2c3c(c(C(F)(F)F)cc2n1C)-c1cccn2c(C(=O)c4cc(F)c(NC(=O)/C(F)=C/CNC5(C)CCOCC5)c(F)c4)cc(c12)CCO3 (atropisomer, axis not shown)
14.8

Now the same for Cc1nc2c3c(c(C(F)(F)F)cc2n1C)-c1cccn2c(C(=O)c4cc(F)c(NC(=O)/C=C/CNC5(C)COC5)c(F)c4)cc(c12)CC(C)O3 (single isomer, unassigned) [Example 272]
14.9

Now the same for `Cc1nc2c3c(c(C(F)(F)F)cc2n1C)-c1cccn2c(C(=O)c4cc(F)c(NC(=O)/C(F)=C/CNCC5(CO)CC5)c(F)c4)cc(c12)CCO3`
25.3

Now the same for COCc1nc2c3c(c(OC)cc2n1C)-c1cccn2c(C(=O)c4cc(F)c(NC(=O)/C=C/CNCC5(F)CC5)c(F)c4)cc(c12)CCN3C (atropisomer, axis not shown)
16.6

###

System: MIA PaCa-2 cells
methodNotes: Growth inhibition activity on KRAS-G12C mutant cell line (CellTiter-Glo 3D)
Format: cell-based, human
conditionSet: Homo sapiens, MIA PaCa-2, 72 h, MIA PaCa-2, 3-day culture with compound; Table 3
measuredMetric: IC50 (nM)
The reply should be a number in nM, with the unit left off.

Please give the measured IC50 for this compound: `Cc1nc2c3c(c(C(F)(F)F)cc2n1C)-c1cccn2c(C(=O)c4cc(F)c(NC(=O)/C=C/CNC5(C)CCOCC5)c(F)c4)cc(c12)CCO3`
12

Now the same for `CO[C@H]1CC[C@H](NC/C=C/C(=O)Nc2c(F)cc(C(=O)c3cn4c5c(cccc35)-c3c(C(F)(F)F)cc5c(nc(C)n5C)c3CCCC4)cc2F)CC1`
53

Now the same for `CO[C@H]1CC[C@H](NC/C=C/C(=O)Nc2c(F)cc(C(=O)c3cn4c5c(cccc35)-c3c(F)cccc3OCC4)cc2F)CC1`
1100

Now the same for `CO[C@H]1CC[C@H](NC/C=C/C(=O)Nc2ccc(C(=O)c3cc4c5c(cccn35)-c3c(C(F)(F)F)cc5c(nc(C)n5C)c3OCC4)cc2)CC1`
28

Now the same for Cc1nc2c3c(c(C(F)(F)F)cc2n1C)-c1cccn2c(C(=O)c4cc(F)c(NC(=O)/C=C/CNC5(C)CCOC5)c(F)c4)cc(c12)CCO3 (centres unmarked)
4

Now the same for `CO[C@H]1CC[C@H](NC/C=C/C(=O)Nc2c(F)cc(C(=O)c3cn4c5c(cccc35)-c3c(C(F)(F)F)cc5c(nc(C)n5C)c3CCC4)cc2F)CC1`
17

Now the same for `CO[C@H]1CC[C@H](NC/C=C/C(=O)Nc2c(F)cc(C(=O)c3nn4c5c(cccc35)-c3c(C(F)(F)F)cc5c(nc(C)n5C)c3OCC4)cc2F)CC1`
57

Now the same for `CO[C@H]1CC[C@H](NC/C=C/C(=O)Nc2c(F)cc(C(=O)c3c(C)n4c5c(cccc35)-c3c(C(F)(F)F)cc5c(nc(C)n5C)c3OCC4)cc2F)CC1`
24

Now the same for CO[C@H]1CC[C@H](NC/C=C/C(=O)Nc2c(F)cc(C(=O)c3cc4c5c(cccn35)-c3c(C(F)(F)F)cc5c(nc(C)n5C)c3OC(C)C4)cc2F)CC1 (some centres unmarked)
9

Now the same for `CO[C@H]1CC[C@H](NC/C=C/C(=O)Nc2c(F)cc(C(=O)c3cc4c5c(cccn35)-c3c(C)cc5c(nc(C)n5C)c3OCC4)cc2F)CC1`
86

Now the same for Cc1nc2c3c(c(C(F)(F)F)cc2n1C)-c1cccn2c(C(=O)c4cc(F)c(NC(=O)/C=C/CNC5CCP(C)(=O)CC5)c(F)c4)cc(c12)CCO3 (centres unmarked)
150

Now the same for `Cc1nc2c3c(c(C(F)(F)F)cc2n1C)-c1cccn2c(C(=O)c4cc(F)c(NC(=O)/C=C/CNC5CCOCC5)c(F)c4)cc(c12)CCO3`
7

Now the same for `CO[C@H]1CC[C@H](NC/C=C/C(=O)Nc2c(F)cc(C(=O)c3cn4c5c(cccc35)-c3c(C)cc5c(nc(C)n5C)c3OC[C@H]4C)cc2F)CC1`
820

Now the same for `CO[C@H]1CC[C@H](NC/C=C/C(=O)Nc2c(F)cc(C(=O)c3cn4c5c(cccc35)-c3c(C)cc5c(nc(C)n5C)c3OC[C@@H]4C)cc2F)CC1`
21

Now the same for `CO[C@H]1CC[C@H](NC/C=C/C(=O)Nc2c(F)cc(C(=O)c3cn4c5c(cccc35)-c3c(C(F)(F)F)ccc(=O)n3CCC4)cc2F)CC1`
150

Now the same for `CO[C@H]1CC[C@H](NC/C=C/C(=O)Nc2c(F)cc(C(=O)c3cn4c5c(cccc35)-c3c(ccc(C#N)c3Cl)OCC4)cc2F)CC1`
760

Now the same for `CO[C@H]1CC[C@H](NC/C=C/C(=O)Nc2c(F)cc(C(=O)c3cn4c5c(cccc35)-c3c(C)cc5c(nc(C)n5C)c3CCC4)cc2F)CC1`
88

Now the same for `CO[C@H]1CC[C@H](NC/C=C/C(=O)Nc2c(F)cc(C(=O)c3cn4c5c(cccc35)-c3c(C)cc5c(nc(C)n5C)c3N(C)CC4)cc2F)CC1`
10

Now the same for `CO[C@H]1CC[C@H](NC/C=C/C(=O)Nc2c(F)cc(C(=O)c3cn4c5c(cccc35)-c3c(C(F)(F)F)cc5c(nc(C)n5C)c3N(C)CC4)cc2F)CC1`
5

Now the same for `CO[C@H]1CC[C@H](NC/C=C/C(=O)Nc2c(F)cc(C(=O)c3cn4c5c(cccc35)-c3c(C)cccc3OCC4)cc2F)CC1`
670

###

measuredTarget: biotinylated KRAS G12C protein (GMP-PNP loaded) and GST-tagged Ras binding domain of c-RAF (Homo sapiens, UniProt P01116, C118S/C51S/C80L/G12C)
methodNotes: RAS:RAF-RBD binding assay (TR-FRET)
conditionSet: 30-minute incubation of compound with KRAS G12C before RAF-RBD; Table 4; read-out: IC50
Entries whose IC50 is below 20 nM take True; entries at or above 20 nM take False.

Is the reported IC50 for `CN1CCc2cc(C(=O)c3cc(F)c(NC(=O)/C=C/CNC4(C)COC4)c(F)c3)n3cccc(c23)-c2c(C(F)(F)F)cc3c(cnn3C)c21` strictly below 20 nM?
False

Now the same for `Cc1nc2c3c(c(C(F)(F)F)cc2n1C)-c1cccn2c(C(=O)c4cc(F)c(NC(=O)/C=C/CNC5CC(F)(F)C5)c(F)c4)cc(c12)CCO3`
False

Now the same for Cc1nc2c3c(c(C(F)(F)F)cc2n1C)-c1cccn2c(C(=O)c4cc(F)c(NC(=O)C=CCN5CCCC5C5(O)CC5)c(F)c4)cc(c12)CCO3 (centres unmarked)
True

Now the same for `Cc1nc2c3c(c(C(F)(F)F)cc2n1C)-c1cccn2c(C(=O)c4cc(F)c(NC(=O)/C=C/CNCC5(F)CC5)c(F)c4)cc(c12)CCO3`
True

Now the same for Cc1nc2c3c(c(C(F)(F)F)cc2n1C)-c1cccn2c(C(=O)c4cc(F)c(NC(=O)/C=C/C5CCCN5)c(F)c4)cc(c12)CCO3 (single isomer, unassigned) [Example 251]
True

Now the same for `Cc1nc2c3c(c(C(F)(F)F)cc2n1C)-c1cccn2c(C(=O)c4cc(F)c(NC(=O)/C=C/CNC5(C)CCOCC5)c(F)c4)cc(c12)CCO3`
True

Now the same for `Cc1nc2c3c(c(C(F)(F)F)cc2n1C)-c1cccn2c(C(=O)c4cc(F)c(NC(=O)/C=C/CN5CC6(CCCOC6)C5)c(F)c4)cc(c12)CCO3`
False

Now the same for `Cc1nc2c3c(c(C(F)(F)F)cc2n1C)-c1cccn2c(C(=O)c4cc(F)c(NC(=O)/C=C/CNCC5(CO)COC5)c(F)c4)cc(c12)CCO3`
True

Now the same for CN1CCc2cc(C(=O)c3cc(F)c(NC(=O)/C=C/CNC4(C)COC4)c(F)c3)n3cccc(c23)-c2c(C(F)(F)F)cc3nn(C)cc3c21 (single isomer, unassigned)
False

Now the same for `Cc1nc2c3c(c(C(F)(F)F)cc2n1C)-c1cccn2c(C(=O)c4cc(F)c(NC(=O)/C=C/CN5CCC[C@H]5CO)c(F)c4)cc(c12)CCO3`
True
